Experiment: High Content Imaging Cell-Based qHTS for Inhibitors of the mTORC1 Signaling Pathway in MEF (Tsc2-/-, p53-/-) Cells (AID 2666);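 also: percent of cells scored positive for phospho-rpS6 Ser235/236 immunostaining by imaging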
Settings: series mostly up to 38.3 µM
Records with an inconclusive call do not appear. Calls of active or inactive are those of the source. Calls follow the shape of the dose curve; as a rule, active = well fitted inhibition curve with a large enough effect; inconclusive = small, poorly fitted or top-dose-only effect; inactive = flat fitted curve, though single readings scatter. Residues, ends and D or L forms follow the SMILES beside them. *: point of attachment. Cbz = O=C(OCc1ccccc1)*
ENDPOINT: outcome

[[record]]
compound = "CSC(N)=NCCC[C@H](N)C(=O)O"
endpoint = "outcome"
reported_measurement = "inactive"

[[record]]
compound = "CC(=O)C(C)=O"
endpoint = "outcome"
reported_measurement = "inactive"

[[record]]
compound = "O=c1cc(-c2ccccc2F)[nH]c2cc3c(cc12)OCO3"
endpoint = "outcome"
reported_measurement = "inactive"

[[record]]
compound = "[Li+]"
endpoint = "outcome"
reported_measurement = "inactive"

[[record]]
compound = "O=C1Nc2ccc(I)cc2/C1=C/c1cc(Br)c(O)c(Br)c1"
endpoint = "outcome"
reported_measurement = "inactive"


// input: 6 compounds below; output: outcome for each
1. CC(C)[C@H](NC(=O)OCc1ccccc1)C(=O)N[C@H](C=O)Cc1ccccc1 (Cbz-Val-Phe-aldehyde)
2. C#CC(N)CCC(=O)O (configuration not stated)
3. Cc1cc(Cn2cnc3c2C[C@@H](C(=O)O)N(C(=O)C(c2ccccc2)c2ccccc2)C3)ccc1N
4. O=c1onc2cnc3ccccc3n12
5. Cc1cc2c(cc1Cl)N(C(=O)Nc1ccnc3ccccc13)CC2
6. Nc1ncnc2c1nc(Sc1ccc(Cl)cc1)n2[C@H]1OC2COP(=O)(O)O[C@@H]2C1O (some centres not stated)

1: inactive; 2: inactive; 3: inactive; 4: inactive; 5: inactive; 6: inactive

Given the entry "O=c1ccc2c(OCCCCc3ccccc3)c3ccoc3cc2o1" , report its measured outcome. inactive

====

Experiment: Quantitative high throughput screen for delayed death inhibitors of the malarial parasite plastid, 96 hour incubation (AID 488745);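 also: luciferase-expressing P. falciparum in erythrocytes at 2% hematocrit and 0.1% parasitemia; % is scaled to controls: 0 for no effect and ±100 for the full control effect; nearly all actives have a fitted effect of over 70% in size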
Settings: Plasmodium falciparum growth; series mostly up to 28.7 µM
Inconclusive results are not listed. Calls of active or inactive are those of the source. Calls follow the shape of the dose curve; as a rule, active = well fitted inhibition curve with a large enough effect; inconclusive = small, poorly fitted or top-dose-only effect, or effect the other way; inactive = no such curve, though single readings can be large or run the other way.
Tick one outcome: active, inactive

What is the recorded call for this compound in the test? "C/C(=C\c1ccc(C(=O)O)cc1)c1ccc2c(c1)C(C)(C)CCC2(C)C" inactive

====

What activation was measured for each of the following?
Assay: qHTS assay for small molecule activators of the nuclear factor-kappa B (NF-kB) signaling pathway (AID 651749); also: % of control where 0% means no effect
Conditions: NF-kB-bla ME-180 cells, beta-lactamase FRET ratio, 16 h; stronger effect = higher value
Records with an inconclusive call do not appear.
Give bare numbers, in %.

[[record]]
smiles_data = "CC1=C(/C=C/C(C)=C/C=C/C(C)=C\\C(=O)O)C(C)(C)CCC1"
reported_measurement = -1.8

[[record]]
smiles_data = "NC(=O)c1ccccc1"
reported_measurement = 1.72

[[record]]
smiles_data = "CC(=O)C(C)=O"
reported_measurement = -1.05

[[record]]
smiles_data = "CCCCCCCCCCCCCCSCC(=O)O"
reported_measurement = 3.35


Now for the molecule whose activation we want.
Given the entry "CCCc1c(-c2ccc(O)cc2)nn(-c2ccc(O)cc2)c1-c1ccc(O)cc1" , report its measured activation. -3.76

====

Biological target: Peptidyl-prolyl cis-trans isomerase NIMA-interacting 1 (Homo sapiens) (UniProt Q13526)
Sequence (Q13526 whole entry, looked up): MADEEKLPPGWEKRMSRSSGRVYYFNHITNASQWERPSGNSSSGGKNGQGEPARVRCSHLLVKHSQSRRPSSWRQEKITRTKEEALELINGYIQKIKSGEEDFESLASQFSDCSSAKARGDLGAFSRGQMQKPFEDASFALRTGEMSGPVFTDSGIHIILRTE
Assay: qHTS Validation Assay to Find Inhibitors of Pin1 (AID 504536);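 also: 0% = full Pin1 enzyme wells and -100% = no-enzyme wells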
Conditions: Pin1 fluorescence polarization peptide binding assay; series mostly up to 57.5 µM
Results filed as inconclusive are left out. Activity calls are given as the source filed them. Calls follow the shape of the dose curve; as a rule, active = well fitted inhibition curve with a large enough effect in the polarisation, with a control signal flat (not every such curve was filed as active); inconclusive = small, poorly fitted or top-dose-only effect, or effect the other way; inactive = flat fitted curve, though single readings scatter; the % refers to the polarisation.
Tick one outcome: active, inactive

[[record]]
compound = "C=CCN1CCc2c(cc(O)c(O)c2Cl)C(c2ccccc2)C1 (centres undefined)"
class_label = "inactive"

[[record]]
compound = "CC#CCOC(=O)c1c(C)nc2sc3c(c2c1N)CCC(O)C3 (centres undefined)"
class_label = "inactive"

[[record]]
compound = "O=C(O)Cc1ccc(O)c(O)c1"
class_label = "inactive"

[[record]]
compound = "NCCNS(=O)(=O)c1cccc2c(Cl)cccc12"
class_label = "inactive"

[[record]]
compound = "COC(=O)C(C)(N)Cc1ccc(O)cc1 (centres undefined)"
class_label = "inactive"


# next compound below
What is the recorded call for this compound in the test? "NCCCCN=C(N)N" inactive

====

Experiment: qHTS for differential inhibitors of proliferation of Plasmodium falciparum line 7G8 (AID 1815);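 also: parasite growth measured after three days of incubation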
Details: Plasmodium falciparum 7G8 proliferation inhibition; series mostly up to 28.7 µM
Inconclusive results are not listed. Activity calls are given as the source filed them. Calls follow the shape of the dose curve; as a rule, active = well fitted curve in the direction sought with a large enough effect; inconclusive = small, poorly fitted or top-dose-only effect, or another doubt; inactive = no such curve, though single readings can be large or run the other way.
Tick one outcome: active, inactive

[[record]]
compound = "COC(=O)C(N)Cc1ccc(Cl)cc1 (stereo unspecified)"
class_label = "inactive"

[[record]]
compound = "NC(N)=[N+]1CCc2ccccc2C1"
class_label = "inactive"

[[record]]
compound = "O=C(O)c1cc(=O)cc(C(=O)O)[nH]1"
class_label = "inactive"

[[record]]
compound = "O=c1onc2n1-c1cc(Br)ccc1OC2"
class_label = "inactive"

[[record]]
compound = "COCc1nc2c([nH]1)c(=O)n(C)c(=O)n2CC(C)C"
class_label = "inactive"


What is the recorded call for this compound in the test? "N=C(N)SCCc1cnc[nH]1" inactive

Also need O=C1OC(=O)C2C3CCC(O3)C12 (stereo unspecified) , thanks. inactive

Also need "Oc1ccc(Cn2cc[nH]c2=S)cc1" , thanks. inactive

Also need "NC/C=C\C(=O)O" , thanks. inactive

Also need "N[C@@H](CCC(=O)N[C@H](CSN=O)C(=O)NCC(=O)O)C(=O)O" , thanks. inactive

Also need "COc1ccc(-c2ccc(N)[n+](CCCC(=O)O)n2)cc1" , thanks. inactive

Also need "N=C(N)c1ccc(N)cc1" , thanks. inactive

Also need "CC(N)=O" , thanks. inactive

Also need "C[C@@H](NCCc1ccc(O)cc1)[C@@H](O)c1ccc(O)cc1" , thanks. inactive

Also need NCC(O)C1CCCCCCC1 (stereo unspecified) , thanks. active

Also need "O=S(=O)(c1cccc2c(Cl)cccc12)N1CCCNCC1" , thanks. active

Also need "NCCCCN=C(N)N" , thanks. inactive

Also need "N[C@@H](CCCC(=O)O)C(=O)O" , thanks. inactive

Also need "O=c1[nH]c2cc(Cl)ccc2c(O)c1-c1ccc(Oc2ccccc2)cc1" , thanks. inactive

Also need "C#CCn1c(=O)c2c(ncn2C)n(C)c1=O" , thanks. inactive

Also need "CN1CCN(c2nc3cc(C(F)(F)F)ccc3n3cccc23)CC1" , thanks. active

Also need COc1cc(C(O)C(=O)O)ccc1O (stereo unspecified) , thanks. inactive

====

Target: Flap endonuclease 1 (Homo sapiens)
Test: qHTS Validation Assay for the Inhibitors of Human Flap endonuclease 1 (FEN1) (AID 488816)
Details: FEN1 nuclease activity, fluorogenic DNA substrate; series mostly up to 57.1 µM
Activity calls are given as the source filed them. Calls come from the whole dose curve; as a rule, active = well fitted inhibition curve with a large enough effect; inconclusive = small, poorly fitted or top-dose-only effect; inactive = flat fitted curve, though single readings scatter.
Tick one outcome: active, inactive

Take a look at these entries with their results.
[[record]]
compound = "NC1(C(=O)O)CC1"
class_label = "inactive"

[[record]]
compound = "CNc1ncnc2c1ncn2[C@H]1C[C@H](OP(=O)(O)O)[C@@H](COP(=O)(O)O)O1"
class_label = "inactive"

[[record]]
compound = "CNc1cc(NS(=O)(=O)c2ccc(N)cc2)nc(NC)n1"
class_label = "inactive"

[[record]]
compound = "Cc1nc(N=Nc2cc(S(=O)(=O)O)c3cc([N+](=O)[O-])cc(S(=O)(=O)O)c3c2)c(COP(=O)(O)O)c(C=O)c1O"
class_label = "active"

[[record]]
compound = "O=c1ccn([C@@H]2O[C@H](COP(=O)(O)OP(=O)(O)O)[C@@H](O)[C@H]2O)c(=O)[nH]1"
class_label = "inactive"


# next compound below
What is the recorded call for this compound in the test? CC(N)(C(=O)O)c1ccc(C(=O)O)cc1 (stereo unspecified) inactive

====

Biological target: Papain (Carica papaya) (UniProt P00784)
Sequence (P00784 whole entry, looked up): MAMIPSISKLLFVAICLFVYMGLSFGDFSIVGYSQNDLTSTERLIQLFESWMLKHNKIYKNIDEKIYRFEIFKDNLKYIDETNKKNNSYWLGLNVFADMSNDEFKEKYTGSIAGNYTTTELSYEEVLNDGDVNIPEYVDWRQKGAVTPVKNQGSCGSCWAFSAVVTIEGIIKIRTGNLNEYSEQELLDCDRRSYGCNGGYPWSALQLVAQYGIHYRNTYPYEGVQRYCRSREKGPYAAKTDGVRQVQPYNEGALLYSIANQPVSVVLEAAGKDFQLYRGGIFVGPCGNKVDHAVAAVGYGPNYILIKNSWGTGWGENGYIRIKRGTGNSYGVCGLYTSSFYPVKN
Assay: Primary qHTS assay for inhibitors of the protease papain (AID 1645873);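 also: papain turnover of Z-FR-AMC read as the AMC fluorescence gain over 10 min; % is scaled to controls: 0 for no effect and ±100 for the full control effect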
Conditions: papain Z-FR-AMC cleavage, AMC fluorescence; series mostly up to 49.8 µM
Records with an inconclusive call do not appear. Activity calls are given as the source filed them. Calls come from the whole dose curve; as a rule, active = well fitted inhibition curve with a large enough effect; inconclusive = small, poorly fitted or top-dose-only effect; inactive = no such curve, though single readings can be large or run the other way.
Tick one outcome: 1 (yes) (active), 0 (no) (inactive)

Take a look at these entries with their results.
[[record]]
compound = "c1ccc(CN2CCC3(CCCc4ccccc43)CC2)cc1"
class_label = "0 (no)"

[[record]]
compound = "Brc1c(Br)c(Br)c2[nH]cnc2c1Br"
class_label = "0 (no)"

[[record]]
compound = "Nc1ncnc2c1ncn2C1CCCO1 (centres undefined)"
class_label = "0 (no)"


What is the recorded call for this compound in the test? COc1cc(C(O)CO)ccc1O (centres undefined) 0 (no)

Also need "Clc1nccc2c1ccc1ccccc12" , thanks. 0 (no)

Also need "N=C(N)SCCN" , thanks. 0 (no)

Also need "Cc1nc(N=Nc2ccc(C(=O)O)cc2)c(COP(=O)(O)O)c(C=O)c1O" , thanks. 0 (no)

Also need "Cn1cc(C(=O)OCC2CCN(CCNS(C)(=O)=O)CC2)c2ccccc21" , thanks. 0 (no)

Also need "C[C@@H](NCCc1ccc(O)cc1)[C@@H](O)c1ccc(O)cc1" , thanks. 0 (no)

Also need CCCCCC(O)CCCC(=O)O (centres undefined) , thanks. 0 (no)

Also need C=C1C[C@@]23CC[C@H]4[C@@](C)(CCC[C@@]4(C)C(=O)OC4OC(CO)C(O)C(O)C4O)[C@@H]2CC[C@]1(OC1OC(CO)C(O)C(O)C1OC1OC(CO)C(O)C(O)C1O)C3 (some centres undefined) , thanks. 0 (no)

Also need "CC1=C(/C=C/C(C)=C/C=C/C(C)=C\C(=O)O)C(C)(C)CCC1" , thanks. 0 (no)

Also need "CSC(N)=NCCC[C@H](N)C(=O)O" , thanks. 0 (no)

Also need "O=C(O)c1cc(=O)cc(C(=O)O)[nH]1" , thanks. 0 (no)

Also need "COc1cc2c(CCNC(C)=O)c[nH]c2cc1O" , thanks. 0 (no)

Also need NC1C=CC=C(C(=O)O)C1 (centres undefined) , thanks. 0 (no)

Also need CCCCCCCCCC[Si](C)(C)CCC(=O)NC(Cc1ccc(C)cc1)c1ccccc1 (centres undefined) , thanks. 0 (no)
